Test system: blackgrass
Assay: Test B pre/postemergence blackgrass
Assay type: in vivo, Alopecurus myosuroides
Conditions: Rate 250 g/ha, Postemergence; scale of 0 to 10 where 0 is no effect and 10 is complete control
assay_metric: Plant response rating, Blackgrass

> print(dat)
                                    molecule                       assay.metric  measured
 1  CC(C)N(C(=O)n1oc(=O)n(C(C)C)c1=O)c1cnccn1  Plant response rating, Blackgrass         0
 2  CC(C)N(C(=O)n1oc(=O)n(CCC2OCCCO2)c1=O)c1ccccc1  Plant response rating, Blackgrass         6
 3  CC(C)N(C(=O)n1oc(=O)n(-c2ccc3ccccc3c2)c1=O)c1ccc(F)cc1  Plant response rating, Blackgrass         0
 4  CCC=CCn1c(=O)on(C(=O)N(c2ccccc2)C(C)C)c1=O  Plant response rating, Blackgrass         3
 5  CC(C)N(C(=O)n1oc(=O)n(-c2ccc3ccccc3c2)c1=O)c1ccc(Cl)cc1  Plant response rating, Blackgrass         0
 6  CC(C)N(C(=O)n1oc(=O)n(C2CCOCC2)c1=O)c1ccc(F)cc1  Plant response rating, Blackgrass         9
 7  CC(C)C(C)n1c(=O)on(C(=O)N(c2ccccc2)C(C)C)c1=O (centres unmarked)  Plant response rating, Blackgrass         6
 8  C=CCCCn1c(=O)on(C(=O)N(c2ccc(Cl)cc2)C(C)C)c1=O  Plant response rating, Blackgrass         3
 9  CCN(C(=O)n1oc(=O)n(C2CCCCC2)c1=O)C1CCCCC1  Plant response rating, Blackgrass         0
10  C=CCn1c(=O)on(C(=O)N(c2ccc(Cl)cc2)C(C)C2CC2)c1=O (centres unmarked)  Plant response rating, Blackgrass         3
11  CC(C)N(C(=O)n1oc(=O)n(C[Si](C)(C)C)c1=O)c1ccccc1  Plant response rating, Blackgrass         0

---

Test system: cocklebur
Test: Test B pre/postemergence cocklebur
Type: in vivo, Xanthium strumarium
Details: Preemergence, Rate 250 g/ha; scale 0 (no effect) to 10 (complete control)
Catalogue of Cocklebur plant response rating values
assay_metric: Cocklebur plant response rating

> print(dat)
                                   compound                     assay.metric  measured
1  COC(CCl)n1c(=O)on(C(=O)N(c2ccc(Cl)cc2)C(C)C)c1=O (stereo not shown) [Compound 725]  Cocklebur plant response rating         0
2  CC(=O)OCC(CCl)n1c(=O)on(C(=O)N(c2ccc(F)cc2F)C(C)C)c1=O (racemic) [Compound 708]  Cocklebur plant response rating         0
3  CC(=O)NCCn1c(=O)on(C(=O)N(c2ccc(F)cc2)C(C)C)c1=O [Compound 727]  Cocklebur plant response rating         0
4  CON=CC(C)n1c(=O)on(C(=O)N(c2ccccc2)C(C)C)c1=O (stereo not shown) [Compound 790]  Cocklebur plant response rating        10

---

Tested on: crabgrass
Assay: Test B pre/postemergence crabgrass
Assay type: in vivo, Digitaria sanguinalis
Conditions: Preemergence, Rate 500 g/ha; scale of 0 to 10 where 0 is no effect and 10 is complete control
assay_metric: Plant response rating, Crabgrass

> print(dat)
                               input.smiles     system  measured
1  CC(C)N(C(=O)n1oc(=O)n(C(CF)CF)c1=O)c1ccc(F)cc1F  crabgrass        10
2  CC(C)N(C(=O)n1oc(=O)n(N(C)C)c1=O)c1ccccc1  crabgrass        10
3  CCOP(=O)(Cn1c(=O)on(C(=O)N(c2ccc(Cl)cc2)C(C)C)c1=O)OCC  crabgrass         8

---

Test system: crabgrass
Experiment: Test B pre/postemergence crabgrass
Format: in vivo, Digitaria sanguinalis
Conditions: Postemergence, Rate 62 g/ha; scale 0 to 10, 0 is no effect, 10 is complete control
Description: […] At the same time, these crop and weed species were also treated with postemergence applications of test chemicals formulated in the same manner. […] Treated plants and controls were maintained in a greenhouse for twelve to sixteen days, after which all species were compared to controls and visually evaluated. […]
Catalogue of Crabgrass plant response rating values
assay_metric: Crabgrass plant response rating

> print(dat)
                               input.smiles                     assay.metric  measured
1  CCN(C(=O)n1oc(=O)n(-c2c(C)cccc2C)c1=O)C1CCCCC1  Crabgrass plant response rating         0
2  Cc1cccc(Cl)c1-n1c(=O)on(C(=O)N(c2ccc(F)cc2)C(C)C)c1=O  Crabgrass plant response rating         1
3  CCCn1c(=O)on(C(=O)N(c2ccc(F)cc2)C(C)C)c1=O  Crabgrass plant response rating         5
4  Cc1c(Cl)cccc1-n1c(=O)on(C(=O)N(c2ccc(F)cc2)C(C)C)c1=O  Crabgrass plant response rating         0
5       CCN(CC)C(=O)n1oc(=O)n(Cc2cccs2)c1=O  Crabgrass plant response rating         0
6  Cc1cccc(Cl)c1-n1c(=O)on(C(=O)N(c2ccc(Cl)cc2)C(C)C)c1=O  Crabgrass plant response rating         0
7  Cc1ccccc1-n1c(=O)on(C(=O)N(c2ccc(C(F)(F)F)cc2)C(C)C)c1=O  Crabgrass plant response rating         0
8  Cc1cccc(C)c1-n1c(=O)on(C(=O)N(c2ccc(Cl)cc2)C(C)C)c1=O  Crabgrass plant response rating         0

---

Tested on: velvetleaf
Assay: Test B pre/postemergence velvetleaf
Type: in vivo, Abutilon theophrasti
Settings: Preemergence, Rate 250 g/ha; scale 0 to 10 (0 no effect, 10 complete control)
Catalogue of Plant response rating, Velvetleaf values
assay_metric: Plant response rating, Velvetleaf

> print(dat)
                                   compound                       assay.metric  measured
1  CC(C)N(C(=O)n1oc(=O)n(CCC2=NOCCC2)c1=O)c1ccc(F)cc1 [Compound 656]  Plant response rating, Velvetleaf         6
2  COCCn1c(=O)on(C(=O)N(c2ccc(F)cc2F)C(C)C)c1=O [Compound 628]  Plant response rating, Velvetleaf         9
3  CC(C)N(C(=O)n1oc(=O)n(CNC(=O)c2ccccc2)c1=O)c1ccccc1 [Compound 620]  Plant response rating, Velvetleaf         0
4  C=C(Cl)Cn1c(=O)on(C(=O)N(c2ccc(F)cc2F)C(C)C)c1=O [Compound 634]  Plant response rating, Velvetleaf         4
5  COCCn1c(=O)on(C(=O)N(c2ccc(F)cc2)C(C)C)c1=O [Compound 627]  Plant response rating, Velvetleaf        10
6  CC(C)N(C(=O)n1oc(=O)n(CC2CCCCO2)c1=O)c1ccccc1 (stereo not drawn) [Compound 659]  Plant response rating, Velvetleaf         6

---

Test system: surinam grass
Experiment: Test B pre/postemergence surinam grass
Type: in vivo, Brachiaria decumbens
Conditions: Preemergence, Rate 125 g/ha; scale of 0 to 10 where 0 is no effect and 10 is complete control
assay_metric: B. signalgrass plant response rating

> print(dat)
                                   compound  measured
1  CC(C)N(C(=O)n1oc(=O)n(CC(=O)N(C)C)c1=O)c1ccccc1         1
2  CC(C)N(C(=O)n1oc(=O)n(CCC2=NOCCC2)c1=O)c1ccc(F)cc1         2
3  CC(C)N(C(=O)n1oc(=O)n(CC2CCC2)c1=O)c1ccccc1         6
4  CC(C)N(C(=O)n1oc(=O)n(CNC(=O)c2ccccc2)c1=O)c1ccccc1         0
5  CCC(C)n1c(=O)on(C(=O)N(c2ccccc2)C(C)C)c1=O (centres unmarked)         7
6  C#CC=CC(C)(C)n1c(=O)on(C(=O)N(c2ccccc2)C(C)C)c1=O         0
7  CC[C@H](C)n1c(=O)on(C(=O)N(c2ccc(Cl)cc2)C(C)C)c1=O         5
8  CC(C)N(C(=O)n1oc(=O)n(CCCC(F)(F)F)c1=O)c1ccccc1         8

---

Catalogue of B. signalgrass plant response rating values
Test system: surinam grass
Assay: Test B pre/postemergence surinam grass
Format: in vivo, Brachiaria decumbens
Conditions: Preemergence, Rate 250 g/ha; scale of 0 to 10 where 0 is no effect and 10 is complete control
assay_metric: B. signalgrass plant response rating

> print(dat)
                                    compound                          assay.metric  measured
 1  Cc1ccccc1-n1c(=O)on(C(=O)N(c2ccc(OC(F)(F)F)cc2)C(C)C)c1=O [Compound 300]  B. signalgrass plant response rating         0
 2  CC(C)N(C(=O)n1oc(=O)n(N2C(C)CCCC2C)c1=O)c1ccc(F)cc1 (centres unmarked) [Compound 382]  B. signalgrass plant response rating         2
 3  CCOC(=O)C(C)N(C(=O)n1oc(=O)n(C2CCCCC2)c1=O)c1ccc(F)cc1 (centres unmarked) [Compound 280]  B. signalgrass plant response rating         0
 4  Cc1nsc(Cl)c1Cn1c(=O)on(C(=O)N(c2ccccc2)C(C)C)c1=O [Compound 374]  B. signalgrass plant response rating         2
 5  Cc1nnsc1Cn1c(=O)on(C(=O)N(c2ccccc2)C(C)C)c1=O [Compound 378]  B. signalgrass plant response rating         0
 6  CC1CC1n1c(=O)on(C(=O)N(c2ccc(Cl)cc2)C(C)C)c1=O (centres unmarked) [Compound 369]  B. signalgrass plant response rating         2
 7  CCN(C(=O)n1oc(=O)n(C2CCCCC2)c1=O)C1CCCCC1 [Compound 308]  B. signalgrass plant response rating         0
 8  CC(C)n1c(=O)on(C(=O)N(c2ccc(Cl)cc2Cl)C2CCC2)c1=O [Compound 319]  B. signalgrass plant response rating         2
 9  C=CCn1c(=O)on(C(=O)N(CC)C2CCCCC2)c1=O [Compound 307]  B. signalgrass plant response rating         0
10  CCC(CC)n1c(=O)on(C(=O)N(c2ccccc2)C(C)C)c1=O [Compound 354]  B. signalgrass plant response rating         5
11  C=CCn1c(=O)on(C(=O)N(c2ccc(Cl)cc2)C(C)C2CC2)c1=O (centres unmarked) [Compound 325]  B. signalgrass plant response rating         0

Source of measurements: patent US6737383B1
